ASSAYED TARGET: Serine/threonine-protein kinase PAK 4 (Homo sapiens)
EXPERIMENT NOTES: Inhibition of PAK4 (unknown origin) using lipid substrate at 100 nM incubated for 40 mins in presence of ATP by ADP-Glo plus luminescence kinase assay relative to control
MEASURED METRIC: inhibition (%)
Numbers only, in %.

Reference set, count: 5
Q) Provide value of inhibition for this record tested with Serine/threonine-protein kinase PAK 4 (Homo sapiens): CN(C)CCNC(=O)c1nc(Nc2n[nH]c3ccccc23)c2cc(Cl)ccc2n1
A) 4

Q) And what about the compound CNCCNC(=O)c1nc(Nc2n[nH]c3ccccc23)c2cc(Cl)ccc2n1 ?
A) 3

Q) And what about the compound CNC[C@H](C)NC(=O)c1nc(Nc2n[nH]c3ccccc23)c2cc(Cl)ccc2n1 ?
A) 3

Q) And what about the compound CC(C)[C@@H](N)CNC(=O)c1nc(Nc2n[nH]c3ccccc23)c2cc(Cl)ccc2n1 ?
A) 73

Q) And what about the compound C[C@H]1CN(C(=O)c2nc(Nc3n[nH]c4ccccc34)c3cc(Cl)ccc3n2)CCN1 ?
A) 3

Can you give me inhibition for all of these, one by one?
1. N[C@H](CNC(=O)c1nc(Nc2n[nH]c3ccccc23)c2cc(Cl)ccc2n1)Cc1ccccc1
2. N[C@@H](CNC(=O)c1nc(Nc2n[nH]c3ccccc23)c2cc(Cl)ccc2n1)c1ccccc1

A)
1: 77; 2: 78

---

ASSAYED TARGET: Serine/threonine-protein kinase PAK 4 (Homo sapiens)
EXPERIMENT NOTES: Inhibition of PAK4 (unknown origin) using lipid substrate at 100 nM incubated for 40 mins in presence of ATP by ADP-Glo plus luminescence kinase assay relative to control
Each entry falls in a class defined on inhibition; the bands are band 1: < 20%; band 2: ≥ 20% and < 70%; band 3: ≥ 70%

Reference set, count: 2
Q) In plain terms, what class is O=C(NCC1CNC1)c1nc(Nc2n[nH]c3ccccc23)c2cc(Cl)ccc2n1 ?
A) band 1

Q) And what about the compound O=C(c1nc(Nc2n[nH]c3ccccc23)c2cc(Cl)ccc2n1)N1CCNCC1 ?
A) band 1

More entries:
Q) In plain terms, what class is O=C(NCCO)c1nc(Nc2n[nH]c3ccccc23)c2cc(Cl)ccc2n1 ?
A) band 1

Q) And what about the compound C[C@H](N)CNC(=O)c1nc(Nc2n[nH]c3ccccc23)c2cc(Cl)ccc2n1 ?
A) band 2

Q) And what about the compound C[C@@H](N)CNC(=O)c1nc(Nc2n[nH]c3ccccc23)c2cc(Cl)ccc2n1 ?
A) band 2

Q) And what about the compound Cc1nc(Nc2n[nH]c3c2CN(C(=O)N[C@H](CN(C)C)c2ccccc2)C3(C)C)c2sccc2n1 ?
A) band 3

Q) And what about the compound N[C@@H](CNC(=O)c1nc(Nc2n[nH]c3ccccc23)c2cc(Cl)ccc2n1)Cc1ccccc1 ?
A) band 3

Q) And what about the compound CNC[C@@H](C)NC(=O)c1nc(Nc2n[nH]c3ccccc23)c2cc(Cl)ccc2n1 ?
A) band 2

---

ASSAYED TARGET: Serine/threonine-protein kinase PAK 4 (Homo sapiens, UniProt O96013)
Sequence (O96013 whole entry, looked up): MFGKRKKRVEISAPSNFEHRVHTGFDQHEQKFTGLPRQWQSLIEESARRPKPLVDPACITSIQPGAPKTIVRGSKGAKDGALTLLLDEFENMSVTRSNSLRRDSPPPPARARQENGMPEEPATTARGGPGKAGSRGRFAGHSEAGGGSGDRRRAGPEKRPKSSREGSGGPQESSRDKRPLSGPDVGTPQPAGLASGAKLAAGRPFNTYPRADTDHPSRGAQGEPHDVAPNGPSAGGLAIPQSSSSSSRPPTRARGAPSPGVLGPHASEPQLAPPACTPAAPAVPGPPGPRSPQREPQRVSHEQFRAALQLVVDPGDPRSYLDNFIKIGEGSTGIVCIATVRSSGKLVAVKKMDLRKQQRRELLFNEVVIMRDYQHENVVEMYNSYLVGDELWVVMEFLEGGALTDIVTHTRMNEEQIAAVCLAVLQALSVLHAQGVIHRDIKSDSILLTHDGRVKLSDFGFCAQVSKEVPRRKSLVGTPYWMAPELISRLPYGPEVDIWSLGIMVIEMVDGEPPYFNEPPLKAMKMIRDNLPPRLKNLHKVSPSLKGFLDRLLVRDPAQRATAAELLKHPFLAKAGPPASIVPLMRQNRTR
EXPERIMENT NOTES: Inhibition of PAK4 (unknown origin) using lipid substrate at 100 nM incubated for 40 mins in presence of ATP by ADP-Glo plus luminescence kinase assay relative to control
MEASURED METRIC: inhibition (%)
Numbers only, in %.

Q) Report inhibition for CC(C)[C@H](N)CNC(=O)c1nc(Nc2n[nH]c3ccccc23)c2cc(Cl)ccc2n1 please.
A) 76

Can you give me inhibition for all of these, one by one?
1. O=C(NC1CNC1)c1nc(Nc2n[nH]c3ccccc23)c2cc(Cl)ccc2n1
2. CN(C)CCCNC(=O)c1nc(Nc2n[nH]c3ccccc23)c2cc(Cl)ccc2n1

A)
10
11

Can you give me inhibition for all of these, one by one?
1. NCCNC(=O)c1nc(Nc2n[nH]c3ccccc23)c2cc(Cl)ccc2n1
2. C[C@@H]1CN(C(=O)c2nc(Nc3n[nH]c4ccccc34)c3cc(Cl)ccc3n2)CCN1

A)
[2, 10]
